Molecular target: c-kit (Homo sapiens, UniProt P10721)
Construct: human Mo7e cells which endogenously express c-kit; endogenous in cells; host or cells: human Mo7e cells (SCF-dependent promegakaryocytic leukemia line)
Sequence (P10721 26-976): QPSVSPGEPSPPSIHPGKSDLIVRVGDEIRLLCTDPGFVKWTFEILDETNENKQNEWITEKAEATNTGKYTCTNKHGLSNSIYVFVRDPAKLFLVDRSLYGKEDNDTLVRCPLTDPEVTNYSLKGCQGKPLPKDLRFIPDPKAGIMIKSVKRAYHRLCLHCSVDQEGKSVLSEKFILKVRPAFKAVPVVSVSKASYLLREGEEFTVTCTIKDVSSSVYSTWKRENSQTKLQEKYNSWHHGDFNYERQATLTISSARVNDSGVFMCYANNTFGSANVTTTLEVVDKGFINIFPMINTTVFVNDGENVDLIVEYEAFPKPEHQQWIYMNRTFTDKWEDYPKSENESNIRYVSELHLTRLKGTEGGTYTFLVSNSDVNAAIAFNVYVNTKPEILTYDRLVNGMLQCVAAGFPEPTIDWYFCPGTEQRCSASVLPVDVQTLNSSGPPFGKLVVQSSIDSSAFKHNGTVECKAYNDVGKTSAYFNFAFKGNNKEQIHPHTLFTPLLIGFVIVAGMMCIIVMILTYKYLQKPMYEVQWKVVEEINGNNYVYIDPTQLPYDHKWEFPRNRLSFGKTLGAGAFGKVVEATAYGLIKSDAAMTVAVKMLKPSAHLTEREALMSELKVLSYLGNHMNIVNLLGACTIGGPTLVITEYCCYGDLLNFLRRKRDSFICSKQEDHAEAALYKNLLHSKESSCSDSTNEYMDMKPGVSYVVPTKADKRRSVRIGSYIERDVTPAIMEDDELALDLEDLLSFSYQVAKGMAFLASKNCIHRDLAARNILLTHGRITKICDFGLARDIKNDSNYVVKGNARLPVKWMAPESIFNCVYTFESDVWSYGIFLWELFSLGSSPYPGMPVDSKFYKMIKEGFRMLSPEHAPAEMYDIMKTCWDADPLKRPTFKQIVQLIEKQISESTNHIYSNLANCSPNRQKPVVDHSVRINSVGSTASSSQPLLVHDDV
Experiment: Mo7e cell proliferation assay (SCF dependent proliferation)
Format: cell-based
Conditions: Table 2; human Mo7e cells stimulated with human recombinant SCF, 48 h, CellTiter Glo; 1% FBS (footnote)
Labelling field: enter Satisfied if recorded IC50 is less than 0.2 µM. Enter Not satisfied if it equals or exceeds that cut-off.

molecule: Cc1nc(-c2ccc(C)c(NC(=O)c3cnc4cc(C#N)ccn34)c2)no1 [F187]
assigned_label: Not satisfied
//
molecule: COC(=O)NC(C)(C)c1nc(-c2ccc(C)c(NC(=O)c3cnc4ccccn34)c2)no1 [F148]
assigned_label: Not satisfied
//
molecule: Cc1ccc(-c2noc(CNC(=O)C(C)(C)O)n2)cc1NC(=O)c1cnc2ccccn12 [F134]
assigned_label: Satisfied
//
molecule: COC(=O)NCc1nc(-c2ccc(C)c(NC(=O)c3cnc4ccccn34)c2)no1 [F128]
assigned_label: Satisfied
//
molecule: COCc1n[nH]c(-c2ccc3ncc(C(=O)Nc4cc(-c5noc(CCC(C)(C)O)n5)ccc4C)n3c2)n1 [F214]
assigned_label: Not satisfied
//
molecule: Cc1ccc(-c2noc(C(C)O)n2)cc1NC(=O)c1cnc2ccccn12 (stereo not drawn) [F198]
assigned_label: Not satisfied
//
molecule: COC(=O)NCc1nc(-c2ccc(C)c(NC(=O)c3cnc4cc(CCC(C)(C)O)ccn34)c2)no1 [F178]
assigned_label: Not satisfied
//
molecule: Cc1ccc(-c2noc(C[C@@H](C)N)n2)cc1NC(=O)c1cnc2ccccn12 [F219]
assigned_label: Not satisfied
